Value source: the supplement of paper PMC4858399

Test system: Caenorhabditis elegans N2
PROTOCOL NOTES: mean nematode size ln(EXT) after 48 h, plate-adjusted (DMSO control set to 6) (ln(EXT), control-adjusted); higher = larger nematodes / less growth inhibition
CONDITIONS USED: 200 µM; exposure time 48 h
Where a name gives a salt, the structure may show the parent alone.
MEASUREMENT KIND: mean nematode size ln(EXT) (ln)
// response body must contain only the number

- COMPOUND: "CCC(=O)C(CC(C)N(C)C)(c1ccccc1)c1ccccc1 (centres undefined) [Methadone Hydrochloride]"
  mean nematode size ln(EXT) (ln): 5.54
- COMPOUND: "CCCCC(CC)COC(=O)c1ccccc1C(=O)O (centres undefined)"
  mean nematode size ln(EXT) (ln): 5.88

Query string: Fill blank: measured mean nematode size ln(EXT) (ln) of the compound C=C(C)C(=O)OCCC(F)(F)C(F)(F)C(F)(F)C(F)(F)C(F)(F)C(F)(F)F [3,3,4,4,5,5,6,6,7,7,8,8,8-Tridecafluorooctyl methacrylate] is ____.
Result string: 5.57
